Test system: Saccharomyces cerevisiae
Assay: protein stability index of tFT-peptide fusion (C-terminal peptide) (PSI (0-1 scale)); higher = more stable (slower turnover)
Conditions: genetic background: das1 deletion; temperature: 37 C
value-type: protein stability index

seq-string: LFIRSFLFFSHF
endpoint-result: 0.581
--
seq-string: CVPAPCGRASCR
endpoint-result: 0.743
--
seq-string: CYSLLFVSVILF
endpoint-result: 0.271
--
seq-string: GVARALFLWKAV
endpoint-result: 0.749
--
seq-string: VVCPCIIYVPGV
endpoint-result: 0.637

Please fill in: protein stability index reported for VFGSVAALRLLM = 0.77

* * *

Test system: Saccharomyces cerevisiae
Assay: protein stability index of tFT-peptide fusion in deletion strain of DAS1 (PSI (0-1 scale)); higher = more stable (slower turnover)
Is protein stability index at least 0.6? Then 1. If not, 0.

Some solved cases for reference:
seq-string: PSSAASFWRVVG
measured-target: Saccharomyces cerevisiae
classification: 1
--
seq-string: KKHKKGQWQKIN
measured-target: Saccharomyces cerevisiae
classification: 0
--
seq-string: LVVYLSCVACINY
measured-target: Saccharomyces cerevisiae
classification: 0
--
seq-string: VRGAVGGWRLQG
measured-target: Saccharomyces cerevisiae
classification: 1
--
seq-string: VRSAVGGWRLVG
measured-target: Saccharomyces cerevisiae
classification: 1

// inclusive: protein stability index at least 0.6? input: VRGAVGGWRLRG
1

Answer whether protein stability index of PSLAASFWCVVG is greater than or equal to 0.6.
1

Item ARWRVGLWRGASS with protein stability index of 0.6 or above?
1

# bool: protein stability index of PHLAASFWRVVG >= 0.6
1

hey, is protein stability index for this one >= 0.6? FSMRWTFRYWVNH
0
